Values compiled from PubChem BioAssay (NCI).

// reported TGI per item
# System: SF-295 CNS
# run-description: NCI tumour cell line growth inhibition, 48 h
quantity: TGI

>>> value_observed("CCC(/C=C/c1ccccc1)=N\\Nc1ccc(Cl)c(Cl)c1")
"> 100 µM"
>>> value_observed("C=C1C(=O)O[C@H]2[C@H]3O[C@@H](C[C@@H]12)[C@@]1(C)CC[C@H](O1)C(C)=CCC[C@H]3C")
"17.9 µM"
>>> value_observed("COc1cccc2nc3cc(C)c(C)cc3nc12")
"> 100 µM"
>>> value_observed("CCOc1cc2c(cc1OC(C)=O)C(=O)CC[C@H]1C3CC[C@H](OC(C)=O)[C@@]3(C)CC[C@H]21 (stereo not given in full)")
"> 100 µM"
>>> value_observed("O=c1[nH]c(-c2ccccc2)nc2c1sc1nc3ccccc3n12")
"> 100 µM"
